Reported growth is given for each of the following compounds.
tested on: NCI-H23 lung; assay: NCI-60 one-dose screen, 48 h (100 = growth as untreated, 0 = no growth, -100 = all killed); conditions: 10 µM unless noted
This is part of a sample that, as a whole, favours compounds with a hit. Of some 83,000 tested, about 20% had one in any assay.
// return numeric value only (unit: %, not printed)

Reference set, count: 5
Cc1cccc(-c2ccccc2Oc2ccc3nnc(Cl)n3n2)c1	96.8
Cc1ccc(C2CC(c3ccc(NC(=O)Nc4ccccc4)cc3)=NN2c2ccc(S(C)(=O)=O)cc2)cc1 (centres undefined)	-69.1
Cc1ccc(C(=O)C[n+]2cccc3c4ccccc4ccc32)cc1	27.4
COc1ccc2[nH]c(=O)c(CSc3ccccc3Nc3nccc(-c4ccc(Cl)cc4)n3)cc2c1	43.2
O=C(CSc1nc2sc3c(c2c(=O)n1-c1ccc(Cl)cc1)CCCC3)N/N=C/C=C/c1ccccc1	-74.7

Form field: reported growth of "CC(=O)Nc1ccc(S(=O)(=O)Nc2ccc(-c3ccc4c(c3)NC(=O)/C4=C\c3ccc[nH]3)cc2)cc1" 42.1

---

system: SNB-19 CNS; experiment: NCI-60 one-dose screen, 48 h (100 = growth as untreated, 0 = no growth, -100 = all killed); conditions: 10 µM unless noted
This is part of a sample that, as a whole, favours compounds with a hit. Of some 83,000 tested, about 20% had one in any assay.
Lab note: compare growth with 20%, writing met if less and not met if equal or more.

These solved cases illustrate the format of a correct answer.
COc1ccc([C@H]2C(C(=O)c3ccc(Cl)cc3)C3(N[C@@H]2c2ccccc2)C(=O)Nc2ccccc23)cc1 (stereo not given in full)	not met
COc1ccc(NC(=O)Nc2nc3ccc([N+](=O)[O-])cc3s2)cc1	met
O=C1Nc2ccccc2/C1=C\c1ccc(OCC(=O)c2ccc(Br)cc2)cc1	not met

Next item in the queue.
Criterion: growth strictly below 20%. Is it met by "COc1ccc(Nc2ncnc3sc4c(c23)CCN(Cc2ccccc2)C4)cc1" ? not met

---

test system: OVCAR-3 ovarian; assay: NCI-60 one-dose screen, 48 h; settings: 10 µM unless noted
About 83,000 compounds went through this panel and 20% of them were active in at least one assay; those are over-represented in the sample as a whole. The source made the active and inactive calls. How the source made its calls: active means growth percent below 10; inactive means the rest.
Entry note: the call must match one of yes for active, no for inactive

These solved cases illustrate the format of a correct answer.
CC(C)C[C@H](NC(=O)CNC(=O)C[C@H]1O[C@@H]2OC3(C)CC[C@H]4[C@H](C)CC[C@@H]([C@H]1C)[C@@]24O3)B(O)O	yes
Nc1nnc(-c2cncc(Br)c2)c(-c2c[nH]c3ccc(Cl)cc23)n1	no
COC(=O)c1c(C(=O)OC)c2c3ccccc3c3ccccc3n2c1C(=O)C(C)(C)C	no
CN(CCSSCCN1CCOCC1)C(=O)Oc1cc2c(c3ccccc13)[C@H](CCl)CN2C(=O)c1cc2cc(OCCCN3CCC3)ccc2[nH]1	yes
COc1ccc(CCC2NCCc3c(Br)c4c(c(OC)c32)OCO4)cc1 (centres undefined)	yes

// return assay outcome for "CC(=O)C[n+]1cccc2c3ccccc3ccc21" no

// return assay outcome for "C=CC(=O)Nc1ccc(C(=O)/C=C/c2ccc(N(C)C)cc2)c(O)c1" yes

// return assay outcome for Clc1ccc(CNc2nc(SCCN3CCOCC3)nc3c2cnn3CC(Cl)c2ccc(Br)cc2)cc1 (centres undefined) no

// return assay outcome for "COc1cccc(NC(=O)c2ccc(NC(=O)CCl)s2)c1" no
